Recorded growth for the following compounds
# System: T-47D breast
# method_notes: NCI-60 one-dose screen, 48 h (100 = growth as untreated, 0 = no growth, -100 = all killed)
# measurement_setup: 10 µM
This is part of a sample that, as a whole, favours compounds with a hit. Of some 83,000 tested, about 20% had one in any assay.

compound: C=C(Cl)[C@@](Cl)(CBr)CC[C@@H](Br)C(C)(C)Cl
growth / %: -58.9
//
compound: O=C1CC[C@@H]2CCCC[C@@H]2C1
growth / %: 93.5
//
compound: COc1ccc2c(c1)N(CCO)C1=C(C(=O)OC1)C2c1ccccc1 (stereo unspecified)
growth / %: 37.6
//
compound: Cc1cc(O)c(C(C)(C)C)cc1Sc1cc(C(C)(C)C)c(O)cc1C
growth / %: 18.6
//
compound: CC[C@H]1CCC/C=C/[C@@H]2C[C@H](O)C[C@H]2[C@H](O)/C=C/C(=O)O1
growth / %: -81.1
//
compound: ClCCOCCn1cnc2c(Cl)nc(Cl)nc21
growth / %: 80.9
//
compound: CCCCCCCCCCCC[n+]1ccc(C(N)=O)cc1
growth / %: 38.8
//
compound: O=C(CC(NC(=O)OCc1ccccc1)C(=O)OCc1ccccc1)OCc1ccccc1 (stereo unspecified)
growth / %: 100
//
compound: O=C1/C(=C\c2ccc(F)cc2)CN(C(=O)c2ccccc2F)C/C1=C\c1ccc(F)cc1
growth / %: 40.1
//
compound: COc1ccc(CN2CCC(N3CCCC3=O)c3cc(Cl)ccc32)cc1 (stereo unspecified)
growth / %: 89.5
//
compound: CC1CN(Cc2ccccc2)C(=O)NC1=O (stereo unspecified)
growth / %: 97.2

###

# Test system: UO-31 renal
# method_notes: NCI-60 one-dose screen, 48 h (100 = growth as untreated, 0 = no growth, -100 = all killed)
# measurement_setup: 10 µM
The panel holds about 83,000 compounds, 20% with a hit somewhere; the sample as a whole holds those more often.

structure_notation: O=C(Cc1csc2nc(-c3ccc(Cl)cc3)cn12)N/N=C/c1ccccc1O
units_label: %
growth: 27.2
--
structure_notation: Cc1ccc(S(=O)(=O)OCCN(CCOS(=O)(=O)c2ccc(C)cc2)c2c[nH]c(=O)[nH]c2=O)cc1
units_label: %
growth: 82.8
--
structure_notation: CC1(C)Cc2c(sc3ncn4nc(-c5ccc(O)cc5)nc4c23)CO1
units_label: %
growth: 44.3
--
structure_notation: COc1cc2cc3c(nc2cc1OC)CCN3Cc1ccc(NC(=O)c2ccc(Cl)c(C(F)(F)F)c2)cc1
units_label: %
growth: 71.9
--
structure_notation: Nc1nc(Nc2ccccc2)n[nH]1
units_label: %
growth: 82.3

###

# System: OVCAR-3 ovarian
# method_notes: NCI-60 one-dose screen, 48 h (100 = growth as untreated, 0 = no growth, -100 = all killed)
# measurement_setup: 10 µM
The panel holds about 83,000 compounds, 20% with a hit somewhere; the sample as a whole holds those more often. Active and inactive are the calls of the source. How the source made its calls: active means growth percent below 10; inactive means the rest.

compound: CCCCCCCCCCCCCCCC(=O)OC1[C@@H](OC(=O)CCCCCCCCCCCCCCC)[C@@H](C(=O)N[C@@H](CCCCN)C(=O)OC)O[C@H]1n1cnc2c(=O)[nH]c(NC(=O)C(C)C)nc21 (some centres undefined)
test_target: OVCAR-3 ovarian
growth: 105% (inactive)

compound: CCOC(=O)c1ccc(NC(=O)Nc2ncc(Cl)cc2Cl)cc1
test_target: OVCAR-3 ovarian
growth: 150% (inactive)

compound: COc1cc2cc3c(nc2cc1OC)CCN3Cc1ccc(NC(=O)c2ccc(Cl)c(C(F)(F)F)c2)cc1
test_target: OVCAR-3 ovarian
growth: 94.3% (inactive)

compound: FC(F)(F)c1ccc(-c2cnc(-n3cc(COCCN4CCCCC4)nn3)nc2NC2CCCCCC2)cc1
test_target: OVCAR-3 ovarian
growth: 37.1% (inactive)
